Assay: Non-specific binding (NSB) of drugs to ultrafiltration membrane filter, regenerated cellulose (Millipore Ultrafree-MC UFC 3LGC00, 10 k NMWL)
Type: physicochemical
Conditions: no surfactant pretreatment; drug concentration 5 uM; regenerated cellulose; pH 7.4 PBS
Values of NSB (%) Control strictly less than 30% map to T, and values of at least 30% map to F.

Compound	Classification
Cn1c(=O)c2c(ncn2C)n(C)c1=O	T
CC(C)Cc1ccc(C(C)C(=O)O)cc1 (stereo not drawn)	T
CC[C@]1(O)C[C@@H]2CN(CCc3c([nH]c4ccccc34)[C@@](C(=O)OC)(c3cc4c(cc3OC)N(C)[C@H]3[C@@](O)(C(=O)OC)[C@H](OC(C)=O)[C@]5(CC)C=CCN6CC[C@]43[C@@H]65)C2)C1	F
CC(C)NCC(O)COc1cccc2ccccc12 (stereo not drawn)	F
Cn1c(=O)c2[nH]cnc2n(C)c1=O	T
Cc1cc(=O)n(-c2ccccc2)n1C [Antipyrine]	T
CC(C(=O)O)c1cccc(C(=O)c2ccccc2)c1 (stereo not drawn)	F
C[C@]12CCC(=O)C=C1CC[C@@H]1[C@@H]2[C@@H](O)C[C@@]2(C)[C@H]1CC[C@]2(O)C(=O)CO [Hydrocortisone]	F

Qu. Please indicate whether the reported NSB (%) Control of COc1cc([C@@H]2c3cc4c(cc3[C@@H](O[C@@H]3O[C@@H]5CO[C@@H](C)O[C@H]5[C@H](O)[C@H]3O)[C@H]3COC(=O)[C@H]23)OCO4)cc(OC)c1O [Etoposide] is strictly below 30%.
Ans. F
